- System: PBMC
- method.notes: Cytotoxicity against human PBMC at 2 times IC50 concentration after 48 hrs by MTT assay
- Type: cell-based
Cut-off 7% on Activity: below means 1 (yes), at or above means 0 (no).

INSERT INTO assay_data (molecule, category) VALUES
  ('COC(=O)[C@@H](N)Cc1ccc(O)cc1', '1 (yes)'),
  ('COC(=O)C(Cc1c[nH]c2ccccc12)NC(=O)CCCCc1ccc2c(c1)OCO2 (configuration not stated)', '1 (yes)'),
  ('COC(=O)[C@@H](N)CCSC', '0 (no)'),
  ('COC(=O)C(Cc1c[nH]c2ccccc12)NC(=O)/C=C/C=C/c1ccc2c(c1)OCO2 (configuration not stated)', '1 (yes)'),
  ('COC(=O)C(NC(=O)CCCCc1ccc2c(c1)OCO2)C(C)C (configuration not stated)', '0 (no)'),
  ('COC(=O)[C@@H](N)C(C)C', '1 (yes)'),
  ('COC(=O)C(Cc1ccc(O)cc1)NC(=O)CCCCc1ccc2c(c1)OCO2 (configuration not stated)', '0 (no)');

----------
- Tested on: PBMC
- method.notes: Cytotoxicity against human PBMC at IC50 concentration after 48 hrs by MTT assay
- Format: cell-based
Please note: Activity exactly at 4% is false. Only values below 4% get true.

INSERT INTO assay_data (compound, category) VALUES
  ('O=C(/C=C/C=C/c1ccc2c(c1)OCO2)N1CCCCC1', 'false'),
  ('CCCCCCCCCCCCCCCCOP(=O)([O-])OCC[N+](C)(C)C', 'false'),
  ('CSCCC(NC(=O)/C=C/C=C/c1ccc2c(c1)OCO2)C(=O)O (stereo not given)', 'true'),
  ('O=C(O)/C=C/C=C/c1ccc2c(c1)OCO2', 'false'),
  ('COC(=O)C(Cc1ccccc1)NC(=O)CCCCc1ccc2c(c1)OCO2 (stereo not given)', 'false'),
  ('COC(=O)[C@@H](N)Cc1c[nH]c2ccccc12', 'true'),
  ('O=C(/C=C/C=C/c1ccc2c(c1)OCO2)NC(Cc1c[nH]c2ccccc12)C(=O)O (stereo not given)', 'true'),
  ('COC(=O)C(NC(=O)CCCCc1ccc2c(c1)OCO2)C(C)C (stereo not given)', 'false');

----------
- System: Leishmania donovani
- method.notes: Antileishmanial activity against Leishmania donovani promastigotes after 48 hrs by MTT assay
- Format: functional, organism-based
pIC50: −log10 of the molar value.
result.type: pIC50

INSERT INTO measurements (compound, tested_target, observed_measurement) VALUES
  ('O=C(/C=C/C=C/c1ccc2c(c1)OCO2)N1CCCCC1', 'Leishmania donovani', 2.59),
  ('COC(=O)[C@@H](N)Cc1c[nH]c2ccccc12', 'Leishmania donovani', 2.86),
  ('COC(=O)C(NC(=O)CCCCc1ccc2c(c1)OCO2)C(C)C (stereo not given)', 'Leishmania donovani', 3.14),
  ('COC(=O)C(Cc1ccc(O)cc1)NC(=O)CCCCc1ccc2c(c1)OCO2 (stereo not given)', 'Leishmania donovani', 3.27),
  ('COC(=O)C(Cc1c[nH]c2ccccc12)NC(=O)/C=C/C=C/c1ccc2c(c1)OCO2 (stereo not given)', 'Leishmania donovani', 3.07),
  ('CC(C)C(NC(=O)/C=C/C=C/c1ccc2c(c1)OCO2)C(=O)O (stereo not given)', 'Leishmania donovani', 2.99),
  ('COC(=O)C(Cc1c[nH]c2ccccc12)NC(=O)CCCCc1ccc2c(c1)OCO2 (stereo not given)', 'Leishmania donovani', 3.33),
  ('COC(=O)[C@@H](N)C(C)C', 'Leishmania donovani', 2.63),
  ('CSCCC(NC(=O)/C=C/C=C/c1ccc2c(c1)OCO2)C(=O)O (stereo not given)', 'Leishmania donovani', 2.88),
  ('O=C(/C=C/C=C/c1ccc2c(c1)OCO2)NC(Cc1ccc(O)cc1)C(=O)O (stereo not given)', 'Leishmania donovani', 3.12);
